read-out: Monocyte Chemoattractant Protein-1 (MCP1), CCL2 (gene 6347); assay: BSK_SAg_MCP1: BioMAP Diversity Plus: SAg Assay for Monocyte Chemoattractant Protein-1 (MCP1) Biomarker Activity (AID 2283090); details: primary human HUVEC with PBMC; actives raise or lower the signal
Active and inactive are the calls of the source. Rule for the calls: active = hit-call score of the fitted dose curve at least 0.9, where 1 is the maximum; inactive = score below 0.9.
Possible outcomes: Yes (active), No (inactive)

compound="CC(O)CO (stereo not drawn)" class_name=No
compound=CN(C)C=O class_name=No
compound=CCOC(=O)CC(O)(CC(=O)OCC)C(=O)OCC class_name=No
compound=OC1CCCCC1 class_name=No
compound="COCC(C)O (stereo not drawn)" class_name=No
compound=CC1=C(/C=C/C(C)=C/C=C/C(C)=C/C(=O)O)C(C)(C)CCC1 class_name=No
compound=C#C[C@]1(O)CC[C@H]2[C@@H]3CCC4=CC(=O)CC[C@@H]4[C@H]3CC[C@@]21C class_name=Yes
compound="CCCCC(CC)COC(=O)CCCCC(=O)OCC(CC)CCCC (stereo not drawn)" class_name=No

* * *

target: guinea pig Serotonin, 5-Hydroxytryptamine Receptor 4 (5HT4), HTR4 (gene 100135548) (UniProt O70528); test: NVS_GPCR_g5HT4: NovaScreen (NVS) G Protein-Coupled Receptor Assay for guinea pig Serotonin, 5-Hydroxytryptamine Receptor 4 (5HT4) (AID 2283294)
Sequence (O70528 whole entry, looked up): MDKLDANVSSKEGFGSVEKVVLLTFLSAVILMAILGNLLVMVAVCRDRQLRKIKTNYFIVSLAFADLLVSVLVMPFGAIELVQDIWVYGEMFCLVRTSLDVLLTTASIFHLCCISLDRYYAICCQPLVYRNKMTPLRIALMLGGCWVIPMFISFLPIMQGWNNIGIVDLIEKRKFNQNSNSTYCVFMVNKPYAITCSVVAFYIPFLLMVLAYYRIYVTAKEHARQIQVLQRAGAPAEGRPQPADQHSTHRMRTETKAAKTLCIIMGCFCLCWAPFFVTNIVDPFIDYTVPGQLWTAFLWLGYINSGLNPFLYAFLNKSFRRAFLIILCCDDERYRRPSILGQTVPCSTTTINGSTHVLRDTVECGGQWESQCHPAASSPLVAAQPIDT
Inconclusive results are not listed. Calls of active or inactive are those of the source. The calls were made as follows: active = hit-call score of the fitted dose curve at least 0.9, where 1 is the maximum; inconclusive = response in the unintended direction; inactive = score below 0.9.
Possible outcomes: 1.0 (active), 0.0 (inactive)

compound_structure_string=Cc1oc(-c2ccccc2)nc1CCOc1ccc(C[C@H](Nc2ccccc2C(=O)c2ccccc2)C(=O)O)cc1 class_name=1.0
compound_structure_string=CCN(CC)CCNc1ccc(CNC=O)c2sc3ccc(OC)cc3c(=O)c12 class_name=1.0
compound_structure_string=CCCOc1sc(C(=O)N2CCC(c3cc(CN)ccc3F)CC2)c(C)c1Br class_name=1.0
compound_structure_string=Oc1cc2ccccc2c2ccccc12 class_name=0.0

* * *

experiment: ATG_NFI_CIS: Attagene CIS-FACTORIAL HepG2 Assay for human Nuclear Factor I (NFI) (AID 2282989); details: HepG2 cis-regulatory reporter, NFI response element transcription; actives raise or lower the signal
The source made the active and inactive calls. Rule for the calls: active = hit-call score of the fitted dose curve at least 0.9, where 1 is the maximum; inactive = score below 0.9.
Possible outcomes: Y (active), N (inactive)

compound=CC[C@H](C)[C@@H](C(=O)O)n1sc2ccccc2c1=O class_name=N
compound=Nc1cccc2c(N)cccc12 class_name=N
compound=COc1cc(CCC(=O)CC(=O)CCc2ccc(O)c(OC)c2)ccc1O class_name=N
compound=CCN(CC)CCNc1ccc(CNC=O)c2sc3ccc(OC)cc3c(=O)c12 class_name=Y
compound=O=C(OCCOCCOC(=O)c1ccccc1)c1ccccc1 class_name=N
compound=CCCCCCC(=O)O class_name=N
compound="CCCCC(CC)COC(=O)CCCCC(=O)OCC(CC)CCCC (configuration not stated)" class_name=N
compound=C=C(C)C(=O)OCCC(F)(F)C(F)(F)C(F)(F)C(F)(F)C(F)(F)C(F)(F)F class_name=N
compound=C[C@@H]1C[C@H]2[C@@H]3CCC4=CC(=O)C=C[C@]4(C)[C@@]3(F)[C@@H](O)C[C@]2(C)[C@@]1(O)C(=O)COP(=O)(O)O class_name=N
compound=Cc1cc(C)c(O)c(C)c1 class_name=N
compound=Cc1ccc(S(=O)(=O)O)c(C)c1 class_name=N
compound=CCCCCCCCC(=O)O class_name=N
